Reference for the values: the RNAGym collection of RNA variant scans (doi:10.1073/pnas.2313332121)

B1: TPR 5TU (parent)
chain: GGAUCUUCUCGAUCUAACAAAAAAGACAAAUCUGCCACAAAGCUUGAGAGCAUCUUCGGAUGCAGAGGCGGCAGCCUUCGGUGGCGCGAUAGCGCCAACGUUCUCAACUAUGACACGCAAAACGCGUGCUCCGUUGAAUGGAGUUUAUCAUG

Variants of: B1
TEST_METHOD_NOTES: polymerase ribozyme fitness, log enrichment relative to wild type (log ratio); higher = more active; in vitro selection for triplet polymerase activity
Fewer inactive variants are shown than the library holds.
PARAMETER_MEASURED: polymerase ribozyme fitness (log ratio)

Known results for variants:
Supply measured polymerase ribozyme fitness (log ratio) of A97G C123G C131G in your reply.
-2.72

Supply measured polymerase ribozyme fitness (log ratio) of A3U U61G C95U in your reply.
-1.39

Supply measured polymerase ribozyme fitness (log ratio) of C54A U104A C131U in your reply.
-2.14

Supply measured polymerase ribozyme fitness (log ratio) of C10G C38A G88A A97U in your reply.
≤ -4.2

Next:
Supply measured polymerase ribozyme fitness (log ratio) of A40U A49C C72A C95U C99G A138C in your reply.
≤ -4.2

Supply measured polymerase ribozyme fitness (log ratio) of A29G A37U G94C G141U in your reply.
≤ -4.2

Supply measured polymerase ribozyme fitness (log ratio) of C18U A60G C76U C103G G112U in your reply.
≤ -4.2

Supply measured polymerase ribozyme fitness (log ratio) of C57G G84U A89C G112C U139C C149A in your reply.
≤ -4.2

Supply measured polymerase ribozyme fitness (log ratio) of G94C A107G in your reply.
-3.89

Supply measured polymerase ribozyme fitness (log ratio) of C8A C27A C57G G92A in your reply.
≤ -4.2

Supply measured polymerase ribozyme fitness (log ratio) of U7A C93G A113U A138C in your reply.
≤ -4.2

Supply measured polymerase ribozyme fitness (log ratio) of C18U G140C in your reply.
-4.17

Supply measured polymerase ribozyme fitness (log ratio) of U9C A16U A19U U31A C35U A49U in your reply.
≤ -4.2
